Attribution: the supplement of paper PMC9732359

Let's look at some sequences and their measured protein stability index.
- protocol-notes: protein stability index of a GFP-peptide fusion (yeast GPS) (PSI 1-4); higher = more stable; sorted into four equal gates, so the index is relative within each strain
- test-settings: san1∆
observed-property: protein stability index

>>> print(df.to_string())
                       input_sequence  test_value
 0           TAGNWVASQTVKKVIEI [PRE2]        2.77
 1   IKAPTVAADGKLVTYIV [YLR335W/NUP2]        1.55
 2           SESDLDEDKNFPRSRSR [ESC2]        3.32
 3          RLQAANSMEYTGKITKM [CDC53]        2.52
 4         QLKIQNRQAAASVVPSA [RPL12A]        2.05
 5         RAVKEIKKFAKLHMGTE [RPL31B]        3.08
 6         LDFQTNKRLCDEIATIQ [RPS17A]        2.96
 7           TQGGNVNLDNTAVGKAA [RPT5]        3.28
 8           NSNSNQQSTDADEDDED [RPT1]        2.46
 9          RAGVCEYNEDSRLCTPI [RPN13]        1.41
10           TCVAKKGIAKEHAKWGP [RPB3]        3.21
11          NILPFLWGPHGLNSDAE [ECM29]        2.54
12          EVESSDTIDNVKSKIQD [RPS31]        3.12
13           FGHLMHYGNEHIRRMVP [RPN1]         1.6
14         PTFVEFILIPLYKIFSY [SNU114]        1.62
15           IVFHNEFSEHTFVERLP [DIS3]        2.64
16           DVDMEDRNLTEFDSTDT [RRI1]        2.71
17           SYYGIVCLMQISTRERD [RRP6]        1.21
18           CRNINRKHRNAQFAGRA [DIS3]        2.18
19           SRGNGGKKVLNKNQLLK [POP1]        2.53
20           QIRDVMERFSVLCNSNI [RRP6]        2.18
21          NARKVVGASVVVVKNWG [RPS12]        2.12
22          SQKHNGRILKWLWPLCR [CDC53]        1.35
23  AIPNSIIKRSNGQSLSP [YMR153W/NUP53]        2.71
24           VSGDAAALFRLHKFLTK [SWI3]        2.72
25           LLEGLNEKIEKRSDLTG [UBP6]        3.18
26           TPAMIPYPGSPMHSIMP [DSN1]        2.88
27           CGDSIICNTLNIAKDLK [SMC1]        1.42
28          APKWYPSEDVAALKKTR [RPL6A]        2.75
29           MSSAAEKKPASKAPAEK [HTB2]        2.69

###

- protocol-notes: protein stability index of a GFP-peptide fusion (yeast GPS) (PSI 1-4); higher = more stable; sorted into four equal gates, so the index is relative within each strain
- test-settings: ubr1∆
Let's look at some sequences and their measured protein stability index.
observed-property: protein stability index

In [3]: df
Out[3]:
                     input_sequence        observed_property  test_value
0          IALRNGQSSVKHEDFVE [RPT5]  protein stability index        3.41
1          PINLENNDGSYGLFLKY [SRB8]  protein stability index        1.81
2          HYMVHEALNLLKFFLVD [LIN1]  protein stability index        2.11
3          DKNELQQMIITRLKSLL [SIR3]  protein stability index        2.08
4  ELQEKNVELLNCIRILA [YIL149C/MLP2]  protein stability index        1.68
5          QQRIVSAYEASMVYSNV [RRP4]  protein stability index        2.33
6         DAGVTFNKEQLNKFKKA [ECM29]  protein stability index        2.36

###

- protocol-notes: protein stability index of a GFP-peptide fusion (yeast GPS) (PSI 1-4); higher = more stable; sorted into four equal gates, so the index is relative within each strain
- test-settings: san1∆
observed-property: protein stability index

>>> df
              input_sequence        observed_property  test_value
0   KNGKIYLKHNSIAEEIP [RET1]  protein stability index        2.61
1   FHGTSTKANDKNESATI [FAS2]  protein stability index        2.95
2   LLQEGGSLSGNSSSMEE [ESC2]  protein stability index        2.38
3  LQEKNSGNLPLNELSAK [RPN13]  protein stability index        3.08
4   AEVQSLFQDGSASLHTR [RRP4]  protein stability index        2.85
5  RAASAKIESSVESQFSA [RPS8A]  protein stability index        2.53
6   LATYGLTIDDLGVASFH [FAS2]  protein stability index        2.92
7  EHKSQVVLYNYYLGQYY [CSN12]  protein stability index        2.71

###

Let's look at some sequences and their measured protein stability index.
- protocol-notes: protein stability index of a GFP-peptide fusion (yeast GPS) (PSI 1-4); higher = more stable; sorted into four equal gates, so the index is relative within each strain
- test-settings: doa10∆
observed-property: protein stability index

>>> df
                        input_sequence        observed_property  test_value
 0           TMYMEVYTAIYNYCVNK [CDC53]  protein stability index        1.63
 1            RANVYVGFLVQLDLTGI [PRP8]  protein stability index         2.5
 2            IRGILMASGSTTFTKVA [PRP8]  protein stability index        2.76
 3            PEDLNSLYIYYLIKLLG [SIR2]  protein stability index        2.07
 4            EFNGFSLYQVDPSGSYF [PRE8]  protein stability index        2.19
 5            LLISYGVSIENENKVII [SRB4]  protein stability index         2.1
 6           EPGVLNTGDGSISTYKD [ECM29]  protein stability index        3.28
 7            FKYVSVRYEEKRELKQL [BRR2]  protein stability index        2.63
 8          KCSATNRIIKADDHASV [RPS21A]  protein stability index        2.92
 9            IKNFKSLLLSSSFKEDC [SSN2]  protein stability index        2.82
10           KDGLKLVGSWKKDRATG [RPO21]  protein stability index        3.58
11            GLSQTEAFGNIKIDAKP [MCD1]  protein stability index        2.07
12            YAKEDAFSYPRMYEEAS [RPN2]  protein stability index        2.66
13            TEEELQAAVPDNAEDDS [BRN1]  protein stability index         3.2
14  SRPEYSCTFWSDKESNA [YJL039C/NUP192]  protein stability index        2.08
15    KNDDNSCRNPEHTDVID [YIL149C/MLP2]  protein stability index        3.03
16            TGNNLYDRNSNNNHKDK [SWI1]  protein stability index        3.03
17          ASNEVIAKSRYWYFLQK [RPL20A]  protein stability index        2.19
18           NYKQLTLVGGGAKITPE [RRP43]  protein stability index        1.86
19    EQNHLDNNYNTAETNNK [YDL088C/ASM4]  protein stability index           3
20            SSKKSKRLDKVGKKKGG [LRP1]  protein stability index           2
21            HLIFSNARIYNTEGSVV [SNF2]  protein stability index           3
22    NRGNKKRHRSSYYDNDL [YML031W/NDC1]  protein stability index        3.02
23           MAGSQFENGNITGEDEV [RRP45]  protein stability index        3.02
24            LVDILPPDSDSSISVMG [RPT3]  protein stability index        2.23
25            ESRAQNVFGQDNEDSDN [SWI3]  protein stability index        3.24
26          IKKFAKLHMGTEDVRLA [RPL31B]  protein stability index        3.21
27            STPNFGGNSNKSPPQFF [SIN4]  protein stability index        2.88
28            NGNLEEEFAYVDPARRQ [MED6]  protein stability index        3.62
29  FDTVSNKLFTEPIKLEP [YMR129W/POM152]  protein stability index        2.58
